# inhibition values compiled below
# target or test system: Rac GTPase-activating protein 1 (Homo sapiens) (UniProt Q9H0H5)
# Sequence (Q9H0H5 whole entry, looked up): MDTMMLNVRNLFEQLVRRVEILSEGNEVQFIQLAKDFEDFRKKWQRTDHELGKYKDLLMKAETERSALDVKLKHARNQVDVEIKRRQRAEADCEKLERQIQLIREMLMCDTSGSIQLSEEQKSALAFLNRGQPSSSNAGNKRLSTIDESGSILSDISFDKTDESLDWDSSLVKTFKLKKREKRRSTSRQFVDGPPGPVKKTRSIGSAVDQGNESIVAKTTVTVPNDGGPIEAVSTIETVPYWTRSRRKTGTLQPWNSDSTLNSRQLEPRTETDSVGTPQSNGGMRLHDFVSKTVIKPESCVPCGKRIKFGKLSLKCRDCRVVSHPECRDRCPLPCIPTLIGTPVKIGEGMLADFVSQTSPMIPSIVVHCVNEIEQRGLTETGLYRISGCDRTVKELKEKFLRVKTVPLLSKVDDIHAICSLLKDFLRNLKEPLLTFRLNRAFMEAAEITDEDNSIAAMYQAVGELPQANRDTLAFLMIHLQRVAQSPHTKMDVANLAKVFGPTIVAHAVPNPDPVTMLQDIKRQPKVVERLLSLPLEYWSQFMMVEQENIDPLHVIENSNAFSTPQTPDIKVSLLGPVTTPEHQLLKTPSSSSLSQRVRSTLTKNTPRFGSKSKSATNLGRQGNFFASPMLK
# procedure text: blockers of MgcRacGAP-driven Rac1 GTP hydrolysis – biochemical, ADP Hunter fluorescence, primary and confirmatory, confirmation (AID 624330);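 also: fluorescence reports GDP produced by GAP-driven GTP hydrolysis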
# test settings: MgcRacGAP-stimulated Rac1 GTP hydrolysis, at 30 µM, stronger effect = higher value, GST-tagged Rac1 F28L mutant substrate
Screen size: about 340,000 compounds; about 2,100 (0.62%) were called active. A selection follows. Results with a measured potency or affinity are listed apart.
measure name: inhibition (%)

INSERT INTO results (compound, target_or_test_system, result) VALUES
  ('COc1ccc(N2CCN(C(=O)Cc3ccc(OC)c(OC)c3)CC2)cc1', 'Rac GTPase-activating protein 1 (Homo sapiens) (UniProt Q9H0H5)', 21.6),
  ('Cc1cc(N2CCOCC2)nc(SCc2c(Cl)cccc2Cl)n1', 'Rac GTPase-activating protein 1 (Homo sapiens) (UniProt Q9H0H5)', 8.06),
  ('COc1ccc(/C=C/c2nc(N)nc(-c3ccccc3O)n2)cc1OC', 'Rac GTPase-activating protein 1 (Homo sapiens) (UniProt Q9H0H5)', 4.75),
  ('COc1nc(-c2ccccc2)nc(C)c1CC(=O)O', 'Rac GTPase-activating protein 1 (Homo sapiens) (UniProt Q9H0H5)', 9.59),
  ('CCOC(=O)c1ccc2c(c1)C1C=CCC1C(C(=O)OCC)N2 (stereo unspecified)', 'Rac GTPase-activating protein 1 (Homo sapiens) (UniProt Q9H0H5)', 12.1),
  ('CN(Cc1ccccc1F)C(=O)CN1c2cccc3cccc(c23)S1(=O)=O', 'Rac GTPase-activating protein 1 (Homo sapiens) (UniProt Q9H0H5)', 6.24),
  ('CCOC(=O)Nc1ccc(Oc2ccccc2)cc1', 'Rac GTPase-activating protein 1 (Homo sapiens) (UniProt Q9H0H5)', 1.24),
  ('O=C(/C=C/c1cccc([N+](=O)[O-])c1)NCc1ccccc1', 'Rac GTPase-activating protein 1 (Homo sapiens) (UniProt Q9H0H5)', 2.96),
  ('O=C(O)c1ccc2c(c1)C1C=CCC1C(c1ccncc1)N2 (stereo unspecified)', 'Rac GTPase-activating protein 1 (Homo sapiens) (UniProt Q9H0H5)', 9.53),
  ('COc1ccc(/C=C/c2nc3ccccc3c(=O)n2-c2cccc(C(=O)O)c2)cc1', 'Rac GTPase-activating protein 1 (Homo sapiens) (UniProt Q9H0H5)', 6.96),
  ('CCOC(=O)Nc1ccc(C(N)=O)cc1', 'Rac GTPase-activating protein 1 (Homo sapiens) (UniProt Q9H0H5)', 10);

###

# inhibition values compiled below
# target or test system: Rac GTPase-activating protein 1 (Homo sapiens)
# procedure text: blockers of MgcRacGAP-driven Rac1 GTP hydrolysis – biochemical, ADP Hunter fluorescence, primary and confirmatory, confirmation (AID 624330);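 also: fluorescence reports GDP produced by GAP-driven GTP hydrolysis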
# test settings: MgcRacGAP-stimulated Rac1 GTP hydrolysis, at 30 µM, stronger effect = higher value, GST-tagged Rac1 F28L mutant substrate
Hit rate of the full screen: of about 340,000 compounds, about 2,100 (0.62%) were called active. Not all results are given here. Measured potencies and affinities stand elsewhere.
measure name: inhibition (%)

INSERT INTO measurements (molecule, measure_name, result) VALUES
  ('COC(=O)c1ccc(C)c(-n2c(C)cc(C=O)c2C)c1', 'inhibition', 2.91),
  ('Cc1ccc(S(=O)(=O)N2C[C@@H](C)[C@]3(C2)[C@H](O)[C@H](OC(=O)NC2CCCC2)C[C@H]2C(=O)N(c4ccccc4)C(=O)[C@H]23)cc1', 'inhibition', 15.8),
  ('CC(C)(C)c1nnc(N/N=C/c2ccccc2)n(N)c1=O', 'inhibition', 8.65),
  ('COc1ccccc1N1CCN(C(=O)c2ccncc2)CC1', 'inhibition', -0.56),
  ('CC1(c2cccc(Br)c2)NC(=O)N(CC(=O)Nc2ccc3c(c2)OCO3)C1=O (stereo not given)', 'inhibition', 8.04);

###

# target or test system: Rac GTPase-activating protein 1 (Homo sapiens) (UniProt Q9H0H5)
# procedure text: blockers of MgcRacGAP-driven Rac1 GTP hydrolysis – biochemical, ADP Hunter fluorescence, primary and confirmatory, confirmation (AID 624330);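 also: fluorescence reports GDP produced by GAP-driven GTP hydrolysis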
# test settings: MgcRacGAP-stimulated Rac1 GTP hydrolysis, at 30 µM, stronger effect = higher value, GST-tagged Rac1 F28L mutant substrate
Hit rate of the full screen: of about 340,000 compounds, about 2,100 (0.62%) were called active. Only a sample is shown. Entries with a potency or affinity are not part of this list.
measure name: inhibition (%)

INSERT INTO measurements (compound, measure_name, units_of_measure, result) VALUES
  ('COc1cccc(CC(=O)OCC(=O)NC2(C#N)CCCCC2)c1', 'inhibition', '%', 6.74),
  ('Cc1c(C)c2cccnc2c2ncccc12', 'inhibition', '%', 8.09),
  ('c1ccc(NC2=NCCN2CC2CCCCCC2)cc1', 'inhibition', '%', 7.17),
  ('COc1ccc2[nH]cc(CCNC(C)=O)c2c1', 'inhibition', '%', -0.52),
  ('CC(C)COC(=O)Cc1c(O)c2ccccc2[nH]c1=O', 'inhibition', '%', 1.69),
  ('CSc1cccc(NC(=S)N(CCC(C)C)C2CCN(C(C)C)CC2)c1', 'inhibition', '%', 1.15),
  ('COc1ccc(C(=O)N2CCN(C(=O)Cc3ccccc3)CC2)cc1OC', 'inhibition', '%', 3.19),
  ('O=C(OCC(=O)N1CCN(C(=O)c2ccco2)CC1)c1ccc(Cl)nc1', 'inhibition', '%', 2.2),
  ('COc1cc(C(=O)O)nc(OC)n1', 'inhibition', '%', 0.97),
  ('CCOC(=O)C1CCN(Cc2ccc(OCc3ccccc3)c(OC)c2)CC1', 'inhibition', '%', 15.7),
  ('Cc1ccccc1CNC(=O)CCn1nc(C)c2c(C)n(-c3ccccc3)nc2c1=O', 'inhibition', '%', 13.3),
  ('C[C@H](NC(=O)[C@H](Cc1ccccc1)n1c(=O)[nH]c2ccccc2c1=O)C(=O)N1CCC[C@H]1C(=O)O', 'inhibition', '%', -3.53),
  ('CC(C)c1ccc(NC(=O)CN2CCN(c3ccccn3)CC2)cc1', 'inhibition', '%', 7.53),
  ('COc1cc([N+](=O)[O-])ccc1NC(=O)CCN1C(=O)C2C3CCC(C3)C2C1=O (configuration not stated)', 'inhibition', '%', 6.61),
  ('O=S(=O)(NCCN1CCOCC1)c1ccc2c(c1)OCCO2', 'inhibition', '%', 3.86),
  ('COc1ccc(C(=O)N2CCN(C3CCC(c4ccccc4)CC3)CC2)cc1OC (configuration not stated)', 'inhibition', '%', 23.6),
  ('COc1ccc(-n2c(SCC(=O)Nc3ccc(Br)cc3)nc(O)cc2=O)cc1', 'inhibition', '%', 10.3),
  ('CCc1ccc(CN2CCN(C(=O)c3cccc(OC)c3OC)CC2)cc1', 'inhibition', '%', 23.3),
  ('Cc1cccc(NC(=O)c2ccc(COc3ccccc3)o2)n1', 'inhibition', '%', -1.27),
  ('CN1CCN(C(=O)CN(CCc2ccccc2)S(C)(=O)=O)CC1', 'inhibition', '%', 1),
  ('Clc1ccc(/C=N/N2CCN(Cc3ccccc3Cl)CC2)cc1', 'inhibition', '%', 12),
  ('CCOC(=O)C1CCN(S(=O)(=O)CCNC(=O)c2ccc(F)cc2)CC1', 'inhibition', '%', 6.46),
  ('O=C(CNCc1ccccc1Cl)Nc1ccccc1N1CCCCC1', 'inhibition', '%', 28.3),
  ('CN(CC(=O)Nc1ccccc1C(F)(F)F)C(=O)COc1cccnc1[N+](=O)[O-]', 'inhibition', '%', 2.02),
  ('COc1cc2c(CCNC(C)=O)c[nH]c2cc1Cl', 'inhibition', '%', 7.18),
  ('O=c1oc(-c2cccc(S(=O)(=O)N3CCOCC3)c2)nc2ccccc12', 'inhibition', '%', 13.7),
  ('CCSC1=N/C(=C\c2ccccc2)C(=O)N1', 'inhibition', '%', 7.65),
  ('Cn1cccc1/C=N/N1CCN(Cc2ccccc2)CC1', 'inhibition', '%', 23),
  ('Cc1ccccc1N(CC(=O)N1CCCC1)S(=O)(=O)c1ccc(Cl)cc1', 'inhibition', '%', 5.47),
  ('O=[N+]([O-])c1ccc(N2CCCCC2)nc1N1CCCCC1', 'inhibition', '%', 2.43),
  ('CCOC(=O)COc1ccccc1-c1ccno1', 'inhibition', '%', 5.09),
  ('CCOc1ncccc1C(=O)OCc1c(F)cccc1Cl', 'inhibition', '%', -3.89),
  ('COc1ccccc1NC(=O)c1ccc(NC(=O)COC(=O)c2cncc(Br)c2)cc1', 'inhibition', '%', 5.46),
  ('CCOC(=O)C1CCN(Cc2ccc(OC)c(OCc3ccccc3)c2)CC1', 'inhibition', '%', 27.7),
  ('O=C(CSc1nnc(-c2cccnc2)o1)Nc1ccc(F)cc1', 'inhibition', '%', 13.2),
  ('CC(=O)c1cccc(NC(=O)C(C)OC(=O)CCC2CCCCC2)c1 (configuration not stated)', 'inhibition', '%', 1.73),
  ('COC(=O)c1ccc(NC(=O)CN2CCN(c3ccccn3)CC2)cc1', 'inhibition', '%', 2.35),
  ('CCOC(=O)c1cnc2c(-c3ccccc3)cnn2c1C', 'inhibition', '%', 8.8),
  ('CCN(Cc1ccncc1)C(=O)c1ccc2c(c1)S(=O)(=O)c1ccccc1C2=O', 'inhibition', '%', -39.1),
  ('CCN(CC)c1ccc(/C=N/N2CCN(Cc3ccccc3Cl)CC2)cc1', 'inhibition', '%', -3.36),
  ('O=S(N1CCCCC1)C12CC3CC(CC(C3)C1)C2 (configuration not stated)', 'inhibition', '%', -0.65),
  ('CS(=O)(=O)N(CC(=O)NCCSCc1ccco1)c1ccc(Cl)cc1', 'inhibition', '%', 5.58),
  ('COc1cc(/C=N/O)cc(Br)c1OCc1ccc(Cl)cc1', 'inhibition', '%', 0.88),
  ('Cc1c(Cl)cccc1NC(=O)CNCc1ccccc1F', 'inhibition', '%', 5.19),
  ('Cc1ccc(OCC(=O)N(Cc2cccc(F)c2)C2CCS(=O)(=O)C2)cc1 (configuration not stated)', 'inhibition', '%', 8.85),
  ('O=C(CCCN1C(=O)/C(=C/c2ccccc2Cl)SC1=S)NCCCN1CCOCC1', 'inhibition', '%', 12.8),
  ('O=C1C(=Cc2ccccc2O)SC(=S)N1CCCN1CCOCC1', 'inhibition', '%', 14.5);
